Entry source: patent US20230099344A1

# target of assay: IRAK-4 (Homo sapiens, UniProt Q9NWZ3)
# test method notes: IRAK-4 ELISA, PBMC degradation
# Assay type: cell-based
# Set-up: endogenous in cells; host or cells: PBMC
# reported conditions: treated overnight
# Experimental: Reagents: Human IRAK-4 Matched Antibody Pair Kit (Abcam ab218182) and ELISA Accessory Pack (Abcam ab210905). Cell Treatment and Lysis: 1. OCI-Ly10: 200,000 cells are seeded at 1×10^6/ml in 96-well U-bottom plates 200 ul per well, treated with compound the same day. Incubate overnight. 2. PBMC: 800,000 cells are seeded at 2×10^6/ml in 96-well U-bottom deep-well plates, 400 ul per well, treated with compound the same day. […] Cell lysate is collected and analyzed by ELISA for IRAK-4 levels.
readout name: PBMC DC90

compound	result
CC(C)Oc1cc2c(cc1NC(=O)c1cnn3cccnc13)CN(C1CCN(CCOc3ccc4c(c3)CN(C3CCC(=O)NC3=O)C4=O)CC1)C2=O (centres unmarked) [Example 3]	3 nM

----------
Below, each entry is listed with its recorded Dmax.
# target of assay: UniProtKB Q9NWZ3
# Sequence (Q9NWZ3 1-460): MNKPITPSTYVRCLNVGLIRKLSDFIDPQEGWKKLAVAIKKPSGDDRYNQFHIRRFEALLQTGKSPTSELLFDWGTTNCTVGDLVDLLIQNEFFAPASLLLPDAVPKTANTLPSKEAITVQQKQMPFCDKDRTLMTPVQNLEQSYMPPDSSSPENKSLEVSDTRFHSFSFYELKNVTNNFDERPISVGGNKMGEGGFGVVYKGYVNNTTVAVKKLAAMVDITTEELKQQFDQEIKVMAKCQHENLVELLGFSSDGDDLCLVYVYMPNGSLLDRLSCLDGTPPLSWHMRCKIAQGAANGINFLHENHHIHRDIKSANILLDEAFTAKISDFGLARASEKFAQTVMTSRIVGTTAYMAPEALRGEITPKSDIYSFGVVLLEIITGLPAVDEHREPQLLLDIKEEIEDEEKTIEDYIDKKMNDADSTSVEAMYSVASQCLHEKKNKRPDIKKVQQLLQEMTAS
# test method notes: IRAK-4 ELISA, OCI-Ly10 degradation
# Type: cell-based
# Parameters: endogenous in cells
# reported conditions: OCI-Ly10, OCI-Ly10 cells, treated overnight
# Experimental: Reagents: Human IRAK-4 Matched Antibody Pair Kit (Abcam ab218182) and ELISA Accessory Pack (Abcam ab210905). Cell Treatment and Lysis: 1. OCI-Ly10: 200,000 cells are seeded at 1×10^6/ml in 96-well U-bottom plates 200 ul per well, treated with compound the same day. Incubate overnight. 2. PBMC: 800,000 cells are seeded at 2×10^6/ml in 96-well U-bottom deep-well plates, 400 ul per well, treated with compound the same day. […] Cell lysate is collected and analyzed by ELISA for IRAK-4 levels.

compound	Dmax
O=C1CCC(N2C(=O)c3ccc(N4CC(CN5CCC(N6Cc7cc(NC(=O)c8cnn9cccnc89)c(N8CCOCC8)nc7C6=O)CC5)C4)cc3C2=O)C(=O)N1 (stereo not drawn)	< 70%
O=C1CCC(N2C(=O)c3ccc(N4CCN(CCOC[C@H](F)Cn5cc6cc(NC(=O)c7cnn8cccnc78)c(OCC7CC7)cc6n5)CC4)cc3C2=O)C(=O)N1 (stereo partly drawn)	≥ 90%
COc1cc2nn(C3CCN(C(C)(C)C4CN(c5ccc6c(c5)C(=O)N(C5CCC(=O)NC5=O)C6=O)C4)CC3)cc2cc1NC(=O)c1cnn2cccnc12 (stereo not drawn)	≥ 90%
COc1cc2nn(C3CCN(CC#Cc4ccc5c(c4)C(=O)N(C4CCC(=O)NC4=O)C5=O)CC3)cc2cc1NC(=O)c1cnn2cccnc12 (stereo not drawn)	< 70%
COc1cc2nn(C3CCN(CC4CCN(c5ccc(C(=O)NC6CCC(=O)NC6=O)c(F)c5)CC4)CC3)cc2cc1NC(=O)c1cnn2cccnc12 (stereo not drawn)	≥ 90%
COc1cc2nn([C@H]3CC[C@H](OC4CN(c5ccc6c(c5)C(=O)N(C5CCC(=O)NC5=O)C6=O)C4)CC3)cc2cc1NC(=O)c1cnn2cccnc12 (stereo partly drawn)	≥ 90%
